experimentalDetails: yeast display, Sf9 membrane polyspecificity reagent, FACS + sequencing; frameworks hold sequencing errors
reportedMetric: polyreactivity (PSR sort gate)

Worked cases, polyreactivity (PSR sort gate) given:
>  <biosequence>
QVQLVESGGGLVQAGGSLRLSCAASGRLFTYYVMGWYRQAPGKERELVAAISYGGGSTYYADSVKGRFTISRDNAKNTVYLQMNSLKPEDTAVYYCAAEDGYRKMDYWGQGTQVTVSS

>  <polyreactivity (PSR sort gate)>
low polyreactivity

$$$$
>  <biosequence>
QVQLVESGGGLVQAGGSLRLSCAASGIIFQYYAMGWYRQAPGKERELVAAITSSGGSTFYADSVKGRFTISRDNSKNTVYLQMNSLKPEDTAVFYCAGVYHRSTYDYWGQGTQVTVSS

>  <polyreactivity (PSR sort gate)>
high polyreactivity

$$$$
>  <biosequence>
QVQLVESVGGLVQAAGSLRLSCAASGRIFSPYAMGWYRQAPGKESELVAAISWSGGTTYYADSVKGRFTISRDNAKNTVYLQMNSLKPEDTAVYYCAADLGYQDPLDYYWGQGTQVTVSS

>  <polyreactivity (PSR sort gate)>
high polyreactivity

$$$$
>  <biosequence>
QVQLVESGGGLVQAGGSLRLSSAASGRIFWPNTIGWYRQAPGKERELVAAISWSGGSTYYADSVKGRFTISRDNAKNTVYLQMNSLIPEDTAVYYFNARYPNTRKYDYWGQGTQVTVSS

>  <polyreactivity (PSR sort gate)>
high polyreactivity

$$$$
>  <biosequence>
QVQLVESGGGLVQAGGSLRLSCAASGIIFRGYVMGWYRQAPGKERELVAAISRSGGRTYYADSVKGRFTISRDNAKNTVYLQMNSLKPEDTAVYYCNAVRYVLGYSYDYNYWGQGTQVTVSS

>  <polyreactivity (PSR sort gate)>
high polyreactivity

$$$$
>  <biosequence>
QVHLVESGGGLVQAGGSLRLSCAASGITFGYYAMGWYRQAPGKERELVAAISNSGRTYYADSVKGRFTISRDNAKNTVYLQMNSLKPEDTAVYYCADVDAYYDFYYWGQGTQVTVSS

>  <polyreactivity (PSR sort gate)>
low polyreactivity

$$$$
>  <biosequence>
QVQLVESGGGLVQAVGSLRLSCAASGSTLSANAMGWYRQAPGKEWELVAAISWNGGCTYYADSVKGRFTISRDNAKNTVYLQMNSLKPEDTAVYYCAAEYIVTYEYWYFGYDYWGQGTQVTVSS

>  <polyreactivity (PSR sort gate)>
low polyreactivity

$$$$
>  <biosequence>
QVQNVDSGGGLVQAGGSLRLSCPPSGISYRGYAMGWYRQAPGKERELVAAISVRGASTYYAASVKGRFTISRDNAKYTVYLPMNSLKPEDTAVYYCGATRPSWRYNYWGQGTEVTVSS

>  <polyreactivity (PSR sort gate)>
high polyreactivity

$$$$

List reported polyreactivity (PSR sort gate) for each of these sequences:
1. QVQLVESGGRLVQAGGSLRLSCAASGFIFPRYTRGWYRQAPGKESELVAGITLRGGSTYYADSVKGRFTISRDNAKNTVYLQMNSLKPEDTAVYYCARGISRGRSFGIGYDYWGQGTQVTVSS
2. QVQLVESGGGLVQAGGSLRLSCAASGYIFYEYAMGWYRQAPGKERELVAAISRRGGRTYYADSVKGRFTISRDNAKNTVYLQMKSLKPEDTAVYYCATRVIYGHSVGYWGQCTQVTVSS
3. QVQLVESGGGLVQAGGSLRLSCAASGFTFEKNAMGWYRQAPGKERELVAAITSGGSTYYADSVKGRFTISRDNAKNTVYLQMNSLKPEDTAVYYCNAYYTYRFNYWGQGTQVTVSS
4. QVQLVESGGGIVQAGGSLRLSCAASGRSFPNNAMGWYRPAPGKERELLAAISSGSSTDYADSVKGRFTISRDNAKNTVSLQMNSLKPEATAVYYCNAGDYTYPGSPWPGYAYDYWGLGTQVTVSS

["low polyreactivity", "high polyreactivity", "high polyreactivity", "low polyreactivity"]

Could you tell me polyreactivity (PSR sort gate) for each of these sequences? They are listed below.
1. QVQLVESGGGLVQAGGSLRLSCAASGSTCDTNVMGWYRQAPGKERELVAAITTSSSRTYYADSVKGRFTISRDNAKNTGYLQMNSLKPEDTAVYDCAARIHGSWSFDYWGQGTQVTVSS
2. QVQLVESGGGLVQAGGSLRLSCAASGFTFPLYAMGWYRQAPGKERELVAAIRSSGGSTYYADSVKGRFTISRDNAKNTVYLQMNSLKPEDTAVYYCAKVRYTRRLDTYYYWGQGTQVTVSS

low polyreactivity
high polyreactivity

# credit: the nanobody polyreactivity screen of Harvey et al. (2022)
